Test system: OVCAR-4 ovarian
ASSAY TEXT: NCI-60 one-dose screen, 48 h (100 = growth as untreated, 0 = no growth, -100 = all killed)
CONDITION SET: 10 µM
This is part of a sample that, as a whole, favours compounds with a hit. Of some 83,000 tested, about 20% had one in any assay.
MEASURE: growth (%)
Answers are plain numbers, in %.

Worked cases, growth given:
{"MOLECULE": "CC1=C(CCC=NNC(N)=O)C2=C(C)C3(CC3)[C@@](C)(O)C(=O)C2=C1", "STUDY SYSTEM": "OVCAR-4 ovarian", "growth, %": -33.3}
{"MOLECULE": "CC1=C2C(=C[C@@](C)(COC(=O)c3ccc(S(=O)(=O)F)cc3)[C@@H]2OC(=O)c2ccc(S(=O)(=O)F)cc2)C(=O)[C@](C)(O)C12CC2", "STUDY SYSTEM": "OVCAR-4 ovarian", "growth, %": -9.11}

Give me growth for each of these molecules, listed below.
1. C=C1[C@@H](C)C2[C@H](Cc3ccccc3)NC(=O)[C@]23[C@H](OC(C)=O)/C=C/[C@@](C)(O)C(=O)[C@@H](C)C/C=C/[C@H]3[C@@H]1O (some centres undefined)
2. COc1cccc2c1cc([N+](=O)[O-])c1c(C(=O)O)cc3c(c12)OCO3

34.7
108

###

Tested on: SR leukemia
ASSAY TEXT: NCI-60 one-dose screen, 48 h (100 = growth as untreated, 0 = no growth, -100 = all killed)
CONDITION SET: 10 µM
Protocol: Growth inhibition of the SR human tumor cell line is measured as a screen for anti-cancer activity. Cells are grown in 96 well plates and exposed to the test compound for 48 hours. Compounds are tested at a single concentration, which is 10^-5 M for most compounds. The reported endpoint is percent growth (GI% or GIPRCNT), where numbers from 0 - 100% represent growth inhibition, and numbers from -100% - 0 represent cell death. For example, a value of 40 represents 60% growth inhibition. […]
The panel holds about 83,000 compounds, 20% with a hit somewhere; the sample as a whole holds those more often.
param class (str): category from growth; see ranges bottom range (below 10%), center range (10% to below 40%), top range (40% or more)

{"MOLECULE": "CC(C)=CCc1c2c(c(O)c3c1O[C@]14C(=C[C@@H]5C[C@H]1C(C)(C)O[C@@]4(C/C=C(/C)C(=O)O)C5=O)C3=O)C=CC(C)(C)O2", "GROUP": "bottom range"}

Textbook exercise: identify the category of the molecule given here, Cc1ccc(CNc2nc3ccc(OC/C(=C/F)CN)cc3o2)cn1 , according to its measured value.
top range

Using the reported growth, which band applies to CC1=C(CN(O)C(N)=O)C2=C(C)C3(CC3)[C@](C)(O)C(=O)C2=C1 ?
bottom range

// return the class label for N#Cc1nc(-c2ccccc2)oc1N1CCC(S(=O)(=O)F)CC1
top range

###

Test system: A549/ATCC NSCLC
ASSAY TEXT: NCI-60 one-dose screen, 48 h (100 = growth as untreated, 0 = no growth, -100 = all killed)
CONDITION SET: 10 µM
The panel holds about 83,000 compounds, 20% with a hit somewhere; the sample as a whole holds those more often.
I'd be grateful if you could share measured growth for these entries.
One number for each entry, in %.

Examples from the recorded data:
{"COMPOUND": "CC1=C(CCC=NNC(N)=O)C2=C(C)C3(CC3)[C@@](C)(O)C(=O)C2=C1", "growth (%)": 4.54}
{"COMPOUND": "COc1cccc2c1cc([N+](=O)[O-])c1c(C(=O)O)cc3c(c12)OCO3", "growth (%)": 100}
{"COMPOUND": "COc1cc2c(cc1OC)[C@@H]1N(CC2)C(=O)c2ccccc2[C@@]1(C)C(=O)O", "growth (%)": 111}
{"COMPOUND": "O=C(CCCc1ccc(N(CCCl)CCCl)cc1)OCc1ccccc1", "growth (%)": 78.9}
{"COMPOUND": "CC1=C[C@H]2O[C@@H]3C[C@H]4OC(=O)/C=C\\C=C\\[C@H]([C@@H](C)O)OCC/C(C)=C/C(=O)OC[C@@]2(CC1)[C@]4(C)[C@]31CO1", "growth (%)": -25.6}

I have 3 compounds here; please give me growth for each one.
1. C[C@@H]1C[C@H]2C(=O)O[C@@H](C)C(NC(=O)[C@H](Cc3cc(F)cc(F)c3)NC(=O)Nc3ccc(OS(=O)(=O)F)cc3)C(=O)N3CCC[C@H]3C(=O)N3CCO[C@H](C)[C@H]3C(=O)N[C@@H](CO)C(=O)N2C1 (stereo partly drawn)
2. CC1=C(CN(O)C(N)=O)C2=C(C)C3(CC3)[C@@](C)(O)C(=O)C2=C1
3. COC1[C@@H]2C[C@H]3C(C)(C)O[C@@](C/C=C(/C)C(=O)O)(C2=O)[C@]32Oc3c(CC=C(C)C)c4c(c(O)c3C(=O)[C@H]12)C=CC(C)(C)O4 (stereo partly drawn)

[31, -8.35, -20.3]

FYI, the data here is from PubChem BioAssay (NCI).
